Catalogue of CC50 readings, one per entry.
# Test system: K-562
# experiment: SRB colorimetric assay of cell growth and viability, K-562
# Type: cell-based, human
# condition: 48 hours exposure; read-out: LC50 K-562
Where a SMILES comes first, the peptide text is derived from it. Bridges are numbered along the chain shown (N, C = ends). [ ]: non-standard residue; d: D form. The star is where a group is joined. d(aIle) = CC[C@H](C)[C@@H](N)C(=O)O; d(aThr) = C[C@@H](O)[C@@H](N)C(=O)O; Hexanoyl(5-Me) = CC(C)CCCC(=O)*; Orn = NCCC[C@H](N)C(=O)O; Dhb = C/C=C(\N)C(=O)O

molecule	unit_label	measurement_qualifier	CC50
C/C=C1\NC(=O)[C@H](Cc2ccccc2)NC(=O)[C@@H](C(C)C)NC(=O)[C@@H]([C@@H](C)CC)NC(=O)[C@H](NC(=O)[C@H](NC(=O)[C@H](CCCN)NC(=O)[C@H]2CCCN2C(=O)[C@H](NC(=O)[C@@H](NC(=O)[C@@H](NC(=O)[C@H](NC(=O)Cc2cc(F)cc(F)c2)C(C)C)[C@@H](C)O)C(C)C)C(C)C)[C@@H](C)CC)[C@@H](C)OC(=O)[C@H](C(C)C)NC1=O [Compound 22, [3,5-dFPhAc^14]-KF]	µM	=	6.58
C/C=C1\NC(=O)[C@H](Cc2ccccc2)NC(=O)[C@@H](C(C)C)NC(=O)[C@@H](C(C)C)NC(=O)[C@H](NC(=O)[C@H](NC(=O)[C@H](CCCN)NC(=O)[C@H]2CCCN2C(=O)[C@H](NC(=O)[C@@H](NC(=O)[C@@H](NC(=O)[C@H](NC(=O)CCCC(C)C)C(C)C)[C@@H](C)O)C(C)C)C(C)C)C(C)C)[C@@H](C)OC(=O)[C@H](C(C)C)NC1=O [Compound 12, [D-Val^5, D-Val^7]-KF] ({Hexanoyl(5-Me)}-[dV]TV[dV][dP][Orn][dV][d(aThr)][dV][dV]F[Dhb]V; ester 8-C)	µM	=	6.9
C/C=C1\NC(=O)[C@H](Cc2ccccc2)NC(=O)[C@@H](C(C)C)NC(=O)[C@@H]([C@@H](C)CC)NC(=O)[C@H](NC(=O)[C@H](NC(=O)[C@H](CCCN)NC(=O)[C@H]2CCCN2C(=O)[C@H](NC(=O)[C@H](CCC(N)=O)NC(=O)[C@@H](NC(=O)[C@H](NC(=O)CCCC(C)C)C(C)C)[C@@H](C)O)C(C)C)[C@@H](C)CC)[C@@H](C)OC(=O)[C@H](C(C)C)NC1=O [Compound 48, [Gln^11]-KF] ({Hexanoyl(5-Me)}-[dV]TQ[dV][dP][Orn][d(aIle)][d(aThr)][d(aIle)][dV]F[Dhb]V; ester 8-C)	µM	=	6.64
C/C=C1\NC(=O)[C@H](Cc2ccccc2)NC(=O)[C@@H](C(C)C)NC(=O)[C@@H]([C@@H](C)CC)NC(=O)[C@H](NC(=O)[C@H](NC(=O)[C@H](CCCN)NC(=O)[C@H]2CCCN2C(=O)[C@H](NC(=O)[C@@H](NC(=O)[C@@H](NC(=O)[C@H](NC(=O)CCCCCCCCCCCCCCCCCCC)C(C)C)[C@@H](C)O)C(C)C)C(C)C)[C@@H](C)CC)[C@@H](C)OC(=O)[C@H](C(C)C)NC1=O [Compound 13, [Icos^14]-KF]	µM	=	4.71
C/C=C1\NC(=O)[C@H](Cc2ccccc2)NC(=O)[C@@H](C(C)C)NC(=O)[C@@H]([C@@H](C)CC)NC(=O)[C@H](NC(=O)[C@H](NC(=O)[C@H](CCCCN)NC(=O)[C@H]2CCCN2C(=O)[C@H](NC(=O)[C@@H](NC(=O)[C@@H](NC(=O)[C@H](NC(=O)CCCC(C)C)C(C)C)[C@@H](C)O)C(C)C)C(C)C)[C@@H](C)CC)[C@@H](C)OC(=O)[C@H](C(C)C)NC1=O [Compound 5, [Lys^8]-KF]	µM	=	3.55
C/C=C1\NC(=O)[C@H](Cc2ccccc2)NC(=O)[C@@H](C(C)C)NC(=O)[C@@H]([C@@H](C)CC)NC(=O)[C@H](NC(=O)[C@H](NC(=O)[C@H](CCCN)NC(=O)[C@H]2CCCN2C(=O)[C@H](NC(=O)[C@@H](NC(=O)[C@@H](NC(=O)[C@@H](Cc2ccccc2)NC(=O)CCCC(C)C)[C@@H](C)O)C(C)C)C(C)C)[C@@H](C)CC)[C@@H](C)OC(=O)[C@H](C(C)C)NC1=O [Compound 36, [D-Phe^13]-KF]	µM	=	2.9
C/C=C1\NC(=O)[C@H](Cc2ccccc2)NC(=O)[C@@H](C(C)C)NC(=O)[C@@H]([C@@H](C)CC)NC(=O)[C@H](NC(=O)[C@H](NC(=O)[C@H](CCCN)NC(=O)[C@H]2CCCN2C(=O)[C@H](NC(=O)[C@@H](NC(=O)[C@@H](NC(=O)[C@H](NC(=O)CC[C@H](C)CC)C(C)C)[C@@H](C)O)C(C)C)C(C)C)[C@@H](C)CC)[C@@H](C)OC(=O)[C@H](C(C)C)NC1=O [Compound 16, [(4R)-MeHex^14]-KF]	µM	≥	6.77
C/C=C1\NC(=O)[C@H](Cc2ccccc2)NC(=O)[C@@H](C(C)C)NC(=O)[C@@H]([C@@H](C)CC)NC(=O)[C@H](NC(=O)[C@H](NC(=O)[C@H](CCCN)NC(=O)[C@H]2CCCN2C(=O)[C@H](NC(=O)[C@H](CCC(=O)O)NC(=O)[C@@H](NC(=O)[C@H](NC(=O)CCCC(C)C)C(C)C)[C@@H](C)O)C(C)C)[C@@H](C)CC)[C@@H](C)OC(=O)[C@H](C(C)C)NC1=O [Compound 51, [Glu^11]-KF] ({Hexanoyl(5-Me)}-[dV]TE[dV][dP][Orn][d(aIle)][d(aThr)][d(aIle)][dV]F[Dhb]V; ester 8-C)	µM	=	6.63
C/C=C1\NC(=O)[C@H](Cc2ccccc2)NC(=O)[C@@H](C(C)C)NC(=O)[C@@H]([C@@H](C)CC)NC(=O)[C@H](NC(=O)[C@H](NC(=O)[C@H](CCCN)NC(=O)[C@H]2CCCN2C(=O)[C@H](NC(=O)[C@@H](NC(=O)[C@@H](NC(=O)[C@H](NC(=O)CCCCC(C)(F)F)C(C)C)[C@@H](C)O)C(C)C)C(C)C)[C@@H](C)CC)[C@@H](C)OC(=O)[C@H](C(C)C)NC1=O [Compound 28, [6,6-dFHep^14]-KF]	µM	=	4.75
